- System: FUS-P525L-NLUC-HA / NLUC-FUS-P525L-HA (full-length) (UniProt P35637 1-526, P525L)
- Protocol: NanoBRET
Endpoint Name: Kd
// unit must come after the numeric part

Form: binder = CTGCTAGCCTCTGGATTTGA (XNA, full phosphorothioate, 2'-fluoro-modified gapmer (pattern not in the material)) [2'-F PS-ASO ION-766637] ; Kd = 2.2 nM

Source of measurements: paper PMC5737868
